assay: ATP-based viability of Huh7 replicon cells – cell-based, CellTiter-Glo luminescence, basal, 48 h, cytotoxicity control for HCV replication inhibitor project, primary screen (AID 1143); details: higher = more signal, called active from +8 up or from −8 down;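 note: Huh7 hepatoma cells carrying a hepatitis C replication reporter with no stimulus; test concentration not given here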
MEASURED_METRIC: z-score

>  <COMPOUND>
COCC(=C=CC[C@H](O)c1ccc(OCCO)cc1)CCO

>  <NUMERIC_VALUE>
0.287

$$$$
>  <COMPOUND>
CC(C)[Si](C#CCCCC#N)(O[C@H](c1ccccc1)c1cn(Cc2ccccc2)nn1)C(C)C

>  <NUMERIC_VALUE>
-0.507

$$$$
>  <COMPOUND>
CCOC(=O)C[C@H]1[C@H](OC(=O)c2ccc(C(=O)c3ccccc3)cc2)[C@@H](NC(=O)CC(C)C)c2cc(OCCCO)ccc2N1C(=O)c1ccccc1

>  <NUMERIC_VALUE>
-0.133

$$$$
>  <COMPOUND>
CC1=C2[C@@H](CCc3ccccc3)OB(O)C[C@@H]2[C@@H]2C(=O)N(Cc3ccccc3)C(=O)[C@@H]2C1

>  <NUMERIC_VALUE>
-0.23

$$$$
>  <COMPOUND>
CC(C)(C)OC(=O)COc1cccc(C(=O)CCN2CCOCC2)c1

>  <NUMERIC_VALUE>
-1.13

$$$$
>  <COMPOUND>
COCCOC(=O)N1C(=O)[C@@]2(c3cc(C#CC4=CCCCC4)ccc31)[C@H](c1ccccc1OCCO)N1[C@H](c3ccccc3)[C@H](c3ccccc3)OC(=O)[C@H]1[C@@H]2C(=O)N1CCN(c2ncccn2)CC1

>  <NUMERIC_VALUE>
-4.96

$$$$
>  <COMPOUND>
O=C1OCCC=C[C@H]2OC34C=CCN(c5ccc6ccccc6c5)C(=O)[C@H]3N(CCCO)C(=O)[C@@H]4C12 (stereo partly specified)

>  <NUMERIC_VALUE>
-2.26

$$$$
>  <COMPOUND>
CC1CC/C=C\[C@H]2OC34C=CCN(c5ccc6ccccc6c5)C(=O)[C@H]3N(CCCO)C(=O)[C@@H]4C2C(=O)O1 (stereo partly specified)

>  <NUMERIC_VALUE>
0.0518

$$$$
>  <COMPOUND>
C=CC[C@@H](OC(=O)Nc1ccc(SC)cc1)c1ccc(O)c(F)c1

>  <NUMERIC_VALUE>
-0.77

$$$$
>  <COMPOUND>
COC(=O)C/C=C/C[C@]1(O)C(=O)N(C)c2ccccc21

>  <NUMERIC_VALUE>
-1.2

$$$$
>  <COMPOUND>
CCCCN1CC=CC23O[C@@H]4/C=C\CCCOC(=O)C4[C@H]2C(=O)N(CCO)[C@@H]3C1=O (stereo partly specified)

>  <NUMERIC_VALUE>
-0.211

$$$$
>  <COMPOUND>
CCCN1C(=O)[C@@]2(Cc3ccccc31)N=C(c1ccc(OCCCO)cc1)O[C@H]2c1ccccc1

>  <NUMERIC_VALUE>
-3.36

$$$$
>  <COMPOUND>
CCOC(=O)C[C@H]1[C@H](OC(=O)Cc2ccc3c(c2)OCO3)[C@@H](NC(=O)c2ccc3ccccc3n2)c2cc(OCCCO)ccc2N1C(=O)c1ccccc1

>  <NUMERIC_VALUE>
-0.301

$$$$
>  <COMPOUND>
[N-]=[N+]=Nc1ccccc1C[C@@]1(C(N)=O)N=C(c2ccc(OCCCO)cc2)O[C@@H]1c1ccccc1N=[N+]=[N-]

>  <NUMERIC_VALUE>
-5.17

$$$$
>  <COMPOUND>
CC(C)N1CC=CC23O[C@@H]4C=CCCOC(=O)C4[C@H]2C(=O)N(CCCO)[C@@H]3C1=O (stereo partly specified)

>  <NUMERIC_VALUE>
-2.89

$$$$
>  <COMPOUND>
CCCNC(=O)[C@@]1(C)c2ccccc2C(=O)N(c2ccc(C)cn2)[C@H]1c1ccc(CO)cc1

>  <NUMERIC_VALUE>
0.242

$$$$
>  <COMPOUND>
COCCOC(=O)N1C(=O)[C@@]2(c3ccccc31)[C@H](C(=O)NC[C@H](O)c1ccccc1)[C@H]1C(=O)O[C@H](c3ccccc3)[C@H](c3ccccc3)N1[C@@H]2c1ccc(O)cc1

>  <NUMERIC_VALUE>
-1.98

$$$$
>  <COMPOUND>
COc1cc(NN2C(C(O)c3cc(OC)c(OC)c(OC)c3)C=CC3C(=O)N(C)C(=O)C32)cc(OC)c1OC (stereo unspecified)

>  <NUMERIC_VALUE>
-0.0088

$$$$
>  <COMPOUND>
COC(=O)[C@]1(CCS(=O)(=O)c2ccccc2)N=C(c2ccc(OCCCO)cc2)O[C@@H]1c1ccccc1N=[N+]=[N-]

>  <NUMERIC_VALUE>
-3.71

$$$$
>  <COMPOUND>
CC(=O)N1CC2(CC2)CC1c1ccccc1 (stereo unspecified)

>  <NUMERIC_VALUE>
-0.283

$$$$
>  <COMPOUND>
CCOC(=O)C=Cc1cccc(C)c1O

>  <NUMERIC_VALUE>
-4.73

$$$$
>  <COMPOUND>
COCCOC(=O)N1C(=O)[C@@]2(c3cc(C#CC4=CCCCC4)ccc31)[C@H](C(=O)Nc1nc3ccccc3s1)[C@H]1C(=O)O[C@H](c3ccccc3)[C@H](c3ccccc3)N1[C@@H]2c1ccc(O)cc1

>  <NUMERIC_VALUE>
-0.67

$$$$
>  <COMPOUND>
COCCOC(=O)N1C(=O)[C@@]2(c3cc(C#CCCO)ccc31)[C@H](c1ccc(OCCO)cc1)N1[C@H](c3ccccc3)[C@H](c3ccccc3)OC(=O)[C@H]1[C@@H]2C(=O)Nc1nc2ccccc2s1

>  <NUMERIC_VALUE>
-0.218

$$$$
>  <COMPOUND>
COC(=O)c1c(CC[C@@H](CO)NC(=O)N2CCC[C@H]2Cn2cc(C3(O)CCCCC3)nn2)oc(C(C)=O)c1C(=O)OC

>  <NUMERIC_VALUE>
-0.257

$$$$
>  <COMPOUND>
C=C(COC)/C(=C/C[C@H](OC(=O)c1ccncc1)c1ccccc1OCCO)c1cc(C(=O)OC)ccc1OC

>  <NUMERIC_VALUE>
-2.17

$$$$
>  <COMPOUND>
COc1cc2c(cc1O)C(C1CC1)N(C)CC2 (stereo unspecified)

>  <NUMERIC_VALUE>
-0.426

$$$$
